Molecular target: ATP-dependent translocase ABCB1 (Homo sapiens)
Sequence (P08183 whole entry): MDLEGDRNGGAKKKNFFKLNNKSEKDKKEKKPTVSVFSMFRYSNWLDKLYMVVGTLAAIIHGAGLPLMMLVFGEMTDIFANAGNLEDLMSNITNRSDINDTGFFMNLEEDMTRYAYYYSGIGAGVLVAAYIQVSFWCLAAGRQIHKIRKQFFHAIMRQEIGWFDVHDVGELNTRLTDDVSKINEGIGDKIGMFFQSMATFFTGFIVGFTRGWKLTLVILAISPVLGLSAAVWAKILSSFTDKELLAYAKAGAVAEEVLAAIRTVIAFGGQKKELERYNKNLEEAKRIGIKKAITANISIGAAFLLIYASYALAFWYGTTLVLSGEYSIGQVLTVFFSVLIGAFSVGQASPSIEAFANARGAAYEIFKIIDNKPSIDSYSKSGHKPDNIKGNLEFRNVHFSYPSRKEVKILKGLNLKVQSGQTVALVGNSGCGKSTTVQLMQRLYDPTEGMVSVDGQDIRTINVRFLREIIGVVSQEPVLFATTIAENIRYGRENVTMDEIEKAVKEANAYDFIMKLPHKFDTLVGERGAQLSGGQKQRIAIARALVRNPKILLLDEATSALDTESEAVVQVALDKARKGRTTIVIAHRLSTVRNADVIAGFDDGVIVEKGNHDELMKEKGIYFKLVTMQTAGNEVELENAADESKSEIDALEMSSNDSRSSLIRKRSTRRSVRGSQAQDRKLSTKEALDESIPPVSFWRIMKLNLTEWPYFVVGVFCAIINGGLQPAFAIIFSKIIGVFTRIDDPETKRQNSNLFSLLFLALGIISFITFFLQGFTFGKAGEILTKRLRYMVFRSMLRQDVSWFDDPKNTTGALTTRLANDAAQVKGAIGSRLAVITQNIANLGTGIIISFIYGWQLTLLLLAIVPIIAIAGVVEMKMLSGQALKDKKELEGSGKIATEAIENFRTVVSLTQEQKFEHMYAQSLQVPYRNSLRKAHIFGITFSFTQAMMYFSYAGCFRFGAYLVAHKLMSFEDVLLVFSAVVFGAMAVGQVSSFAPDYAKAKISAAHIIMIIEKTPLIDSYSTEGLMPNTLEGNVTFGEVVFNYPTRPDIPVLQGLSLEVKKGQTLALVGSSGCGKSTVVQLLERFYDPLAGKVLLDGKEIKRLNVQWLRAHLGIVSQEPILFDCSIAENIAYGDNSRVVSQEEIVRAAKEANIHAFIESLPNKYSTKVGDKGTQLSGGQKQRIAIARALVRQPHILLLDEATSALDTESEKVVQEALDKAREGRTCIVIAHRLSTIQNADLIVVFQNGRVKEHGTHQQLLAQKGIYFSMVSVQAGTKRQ
Test: Inhibition of P-gp (unknown origin) expressed in MDCK-MDR1 cells assessed as increase in calcein-AM accumulation incubated for 30 mins by calcein-AM dye based fluorescence assay
Measured metric: EC50 (nM)
Note: unit nM is implicit; provide only the numeric part.

EC50 in this record for "COc1cc(/C=C/C(=O)OC[C@H](C)CN(C)CCCOC(=O)c2c3ccccc3cc3ccccc23)cc(OC)c1OC" : 950

EC50 measured on "COc1cc(/C=C/C(=O)OCCCCCN(C)C[C@@H](C)COC(=O)c2cc(OC)c(OC)c(OC)c2)cc(OC)c1OC" = 310

Input "COc1cc(/C=C/C(=O)OCCCCCCCN(C)C[C@H](C)COC(=O)c2c3ccccc3cc3ccccc23)cc(OC)c1OC" . Output EC50: 1040

Reported EC50 of "COc1cc(/C=C/C(=O)OCCCCCCCN(C)C[C@H](C)COC(=O)c2cc(OC)c(OC)c(OC)c2)cc(OC)c1OC" : 550
